Below: a set of entries, each annotated with reported Neutralizing activity, IC50 (biochemical FXIa assay).
- TEST TARGET: anti-FXIa antibody 076D-M007-H04-CDRL3-N110D
- MEASUREMENT DESCRIPTION: cell-based or functional assay

Recorded results for 3 binders are shown here.
TPP-8240 (antibody, human IgG1, lambda, V domains shown) VH: EVQLLESGGGLVQPGGSLRLSCAASGFTFSSYAMSWVRQAPGKGLEWVAVISYDGSNKHYADSVKGRFTISRDNSKNTLYLQMNSLRAEDTAVYYCARDSMVRGKIFDYWGQGTLVTVSS VL: QSVLTQPPSASGTPGQRVTISCSGSSSNIGNNAVNWYQQLPGTAPKLLIYEDNKRPSGVPDRFSGSKSGTSASLAISGLRSEDEADYYCMIWHSSAWVFGGGTKLTVLG    > 1000 nM
TPP-8246 (antibody, human IgG1, lambda, V domains shown) VH: EVQLLESGGGLVQPGGSLRLSCAASGFTFSSYSMNWVRQAPGKGLEWVSTISGSGGITHYADSVKGRFTISRDNSKNTLYLQMNSLRAEDTAVYYCARDRGNRVAARPAFDYWGQGTLVTVSS VL: QSVLTQPPSASGTPGQRVTISCTESSSNTGAGYDVHWYQQLPGTAPKLLIYGNTNRPSGVPDRFSGSKSGTSASLAISGLRSEDEADYYCASWDDNLGGWVFGGGTKLTVLG    > 1000 nM
TPP-8236 (antibody, human IgG1, lambda, V domains shown) VH: EVQLLESGGGLVQPGGSLRLSCAASGFTFSDYYMNWVRQAPGKGLEWVSTISGTGAAAFYADSVRGRFTISRDNSKNTLYLQMNSLRAEDTAVYYCARDQYLTGGAFDIWGQGTLVTVSS VL: QSVLTQPPSASGTPGQRVTISCSGSSSNIGNNAVNWYQQLPGTAPKLLIYGNSNRPSGVPDRFSGSKSGTSASLAISGLRSEDEADYYCSSYRGSSTLVVFGGGTKLTVLG    > 1000 nM

As a next step, examine the binder that follows.
Recorded Neutralizing activity, IC50 (biochemical FXIa assay) for TPP-8243 (antibody, human IgG1, lambda, V domains shown) VH: EVQLLESGGGLVQPGGSLRLSCAASGFTFSNYGIHWVRQAPGKGLEWVSAIGTGGDTYYADSVMGRFTISRDNSKNTLYLQMNSLRAEDTAVYYCARDRGYYDILTGLYDYWGQGTLVTVSS VL: QSVLTQPPSASGTPGQRVTISCSGSSSNIGNNAVNWYQQLPGTAPKLLIYGNYHRPSGVPDRFSGSKSGTSASLAISGLRSEDEADYYCSSYAGSNNWVFGGGTKLTVLG , please? 1.13 nM
